experiment: absolute recovery over mixed-bed multilayer solid-phase extraction; higher = better recovery; conditions: nanopure water; enrichment method: SPE
Give measured absolute recovery for each item. Keep answers brief.
# output: number + unit

O=P1(NCCCl)OCCCN1CCCl (stereo not drawn): 109%

I would be grateful if you could provide absolute recovery for each of the following entries.
1. C[Si](Cn1cncn1)(c1ccc(F)cc1)c1ccc(F)cc1
2. CC(=O)OCC(=O)C1(O)C(C)CC2C3CCC4=CC(=O)C=CC4(C)C3(F)C(O)CC21C (stereo not drawn) [Betamethasone 21-acetate C]

(A)
1. 103%
2. 93.1%

---

assay: absolute recovery over mixed-bed multilayer solid-phase extraction; higher = better recovery; settings: surface water; enrichment method: SPE
Give measured absolute recovery for each item. Keep answers brief.

// worked examples, absolute recovery included
CCCCOc1ccc(CC(=O)NO)cc1: 83.9%
Cc1cc(Cl)ccc1OC(C)C(=O)[O-] (centres undefined): 99.2%
O=C([O-])COCC[NH+]1CCN(C(c2ccccc2)c2ccc(Cl)cc2)CC1 (centres undefined): 96.3%
CC(C)c1c(C(=O)Nc2ccccc2)c(-c2ccccc2)c(-c2ccc(F)cc2)n1CCC(O)CC(O)CC(=O)[O-] (centres undefined): 42.7%
CN(C)S(=O)(=O)Nc1ccccc1: 95.5%

I would be grateful if you could provide absolute recovery for each of the following entries.
1. O=C([O-])c1cn(C2CC2)c2cc(N3CC[NH2+]CC3)c(F)cc2c1=O
2. CCOC(=O)C1=NOC(c2ccccc2)(c2ccccc2)C1
3. Fc1ccc(Oc2ccnc3cc(Cl)cc(Cl)c23)cc1
4. COCCN(C(=O)CCl)c1c(C)cccc1C

(A)
73.9%
93.3%
76.4%
89.9%
